Entries and their Ki
assay: Inhibition of bovine carbonic anhydrase assessed as formation of p-nitrophenol from p-nitrophenyl acetate substrate after 30 mins by spectrophotometric method; parameters: species or system Bos taurus
Field format: number, assumed µM, no unit text.

- CS(N)(=O)=O [METHANESULFONAMIDE]: 100

Please find the next molecule below.
Item NS(=O)(=O)C(F)(F)F [TRIFLUOROMETHANESULFONAMIDE] : provide Ki
0.002

###

Entries and their inhibition
species: Bos taurus; assay: Inhibition of bovine carbonic anhydrase assessed as formation of p-nitrophenol from p-nitrophenyl acetate substrate at 0.5 mM after 30 mins by spectrophotometric method
Field format: number, assumed %, no unit text.

Consider the worked cases shown below.
• CCOC1Oc2ccc(CC)cc2C(=O)/C1=C\Nc1ccc(S(N)(=O)=O)cc1 (stereo unspecified) = 69.7
• CC(=O)Nc1nnc(S(N)(=O)=O)s1 [ACETAZOLAMIDE] = 91.3
• CCOC1Oc2ccccc2C(=O)/C1=C\Nc1ccc(S(N)(=O)=O)cc1 (stereo unspecified) = 64
• CCOC1Oc2c(Br)cc(Br)cc2C(=O)/C1=C\Nc1cccc(S(N)(=O)=O)c1 (stereo unspecified) = 61.2
• CCOC1Oc2ccc(F)cc2C(=O)/C1=C\Nc1ccc(S(N)(=O)=O)cc1 (stereo unspecified) = 71.2

Item CCOC1Oc2ccccc2C(=O)/C1=C\Nc1cccc(S(N)(=O)=O)c1 (stereo unspecified) : provide inhibition
67.6

Item CCOC1Oc2ccc(Br)cc2C(=O)/C1=C\Nc1cccc(S(N)(=O)=O)c1 (stereo unspecified) : provide inhibition
68.8

Item CCOC1Oc2c(Br)cc(Br)cc2C(=O)/C1=C\Nc1ccc(S(N)(=O)=O)cc1 (stereo unspecified) : provide inhibition
67.3

Item CCOC1Oc2ccc(Br)cc2C(=O)/C1=C\Nc1ccc(S(N)(=O)=O)cc1 (stereo unspecified) : provide inhibition
65.2

Item CCOC1Oc2ccc(F)cc2C(=O)/C1=C\Nc1cccc(S(N)(=O)=O)c1 (stereo unspecified) : provide inhibition
66.8

Item CCOC1Oc2ccc(CC)cc2C(=O)/C1=C\Nc1cccc(S(N)(=O)=O)c1 (stereo unspecified) : provide inhibition
65.3

Source listed as ChEMBL document CHEMBL1811915.
